Test system: K562
Method Description: NCI tumour cell line growth inhibition, 48 h
Active and inactive are the calls of the source. Cut-off read from the data, not from the text of the source: active = GI50 up to about 1.1 µM and inactive = higher.
Value Kind: GI50

> print(dat)
                                   compound  value.kind              result
1    CC(=O)c1ccccc1NP(=O)(c1ccccc1)c1ccccc1        GI50  62.5 µM (inactive)
2  O=C(N/N=C\c1cccc2c([N+](=O)[O-])cccc12)Nc1ccccc1        GI50  5.85 µM (inactive)
3  O=C1NN=C2C=C(c3ccc(Cl)cc3)CC(c3cccc(Br)c3)C12 (centres undefined)        GI50  32.9 µM (inactive)
4  Nc1nc(Cl)cc(NCC2(CO)CCC(Cc3ccccc3)C2)n1 (centres undefined)        GI50  1.21 µM (inactive)

====

Test system: SN12C
Method Description: NCI tumour cell line growth inhibition, 48 h
The source made the active and inactive calls. No stated cut-off is given here; in the data, active = GI50 up to about 1.1 µM and inactive = higher.
Value Kind: GI50

> print(dat)
                                   compound               result
1  CC1CCC(C(C)C)C(OC(=O)NCn2cc(-c3ccccc3)nn2)C1 (centres undefined)  > 100 µM (inactive)
2  CC1(C)OC2OC(C(COS(=O)(=O)C(F)(F)F)N=[N+]=[N-])C(OC(=O)c3ccccc3)C2O1 (centres undefined)  > 100 µM (inactive)
3                        CC#CC(OCC)(OCC)OCC  > 100 µM (inactive)
4  Nc1ncnc2c1ncn2C1C=CC(COS(N)(=O)=O)C1 (centres undefined)    8.2 µM (inactive)

====

System: IGROV-1
Method Description: NCI tumour cell line growth inhibition, 48 h
Active and inactive are the calls of the source. Rule as the data show it: active = GI50 up to about 1.1 µM and inactive = higher.
Value Kind: GI50

> print(dat)
                                   compound               result
1                     C=C(C)CN(CC#N)CC(=C)C  > 100 µM (inactive)
2  c1ccc2c(OCCSCCCCCCCCCCSCCOc3cccc4ccccc34)cccc2c1  > 100 µM (inactive)
3  COC(=O)C(CC(=O)Nc1ccc(Cl)c(Cl)c1)C(=O)C(=O)Nc1ccc(Cl)c(Cl)c1 (centres undefined)  > 100 µM (inactive)
4  CCCC(=O)N[C@@H](Cc1cc(I)c(O)c(I)c1)C(=O)NCCCNCCCCNCCCNC(=O)[C@@H](N)CCCN=C(N)N     29 µM (inactive)

====

System: MOLT-4
Method Description: NCI tumour cell line growth inhibition, 48 h
Activity calls are given as the source filed them. Cut-off read from the data, not from the text of the source: active = GI50 up to about 1.1 µM and inactive = higher.
Value Kind: GI50

> print(dat)
                               given.smiles  tested.system  value.kind              result
1        O=C(NNC(=S)Nc1ccccc1)c1nsc2ccccc12         MOLT-4        GI50  20.7 µM (inactive)
2  COc1ccc2cc(CNCCCN3CCN(CCCNCc4ccc5cc(OC)ccc5c4)CC3)ccc2c1         MOLT-4        GI50   0.859 µM (active)
3             OCCOCn1nncc1Cn1ncc2c(O)ncnc21         MOLT-4        GI50    40 µM (inactive)

====

The compounds listed here are annotated with their GI50.
System: SF-539
Method Description: NCI tumour cell line growth inhibition, 48 h
Activity calls are given as the source filed them. Cut-off read from the data, not from the text of the source: active = GI50 up to about 1.1 µM and inactive = higher.
Value Kind: GI50

> print(dat)
                                   compound  value.kind               result
1  O=[N+]([O-])c1ccc(C2NC(=S)NC3c4cc([N+](=O)[O-])ccc4CCCC23)cc1 (stereo unspecified)        GI50   39.1 µM (inactive)
2  NC1CC(=O)c2c1sc(Cl)c2Cl (stereo unspecified)        GI50  > 100 µM (inactive)
3  COC(=O)c1cccc(COc2ccc([N+](=O)[O-])cc2Cl)c1        GI50  > 100 µM (inactive)
4  CCOC(=O)NC(=O)c1cn(C2OC(CO)C(O)C2O)c(=O)[nH]c1=O (stereo unspecified)        GI50  > 100 µM (inactive)
5    Cn1c(=S)c2nc(SCc3cccnc3)[nH]c2n(C)c1=O        GI50  > 100 µM (inactive)
6  O=C1N/N=C\Nc2ccc(cc2)S(=O)(=O)c2ccc(cc2)/N=C\NNC1=O        GI50  > 100 µM (inactive)
